Target: T1, human glucose-dependent insulinotropic polypeptide receptor (GIPR), expressed on CHO-K1 cells (human, UniProt P48546 22-466)
T1 sequence (looked up): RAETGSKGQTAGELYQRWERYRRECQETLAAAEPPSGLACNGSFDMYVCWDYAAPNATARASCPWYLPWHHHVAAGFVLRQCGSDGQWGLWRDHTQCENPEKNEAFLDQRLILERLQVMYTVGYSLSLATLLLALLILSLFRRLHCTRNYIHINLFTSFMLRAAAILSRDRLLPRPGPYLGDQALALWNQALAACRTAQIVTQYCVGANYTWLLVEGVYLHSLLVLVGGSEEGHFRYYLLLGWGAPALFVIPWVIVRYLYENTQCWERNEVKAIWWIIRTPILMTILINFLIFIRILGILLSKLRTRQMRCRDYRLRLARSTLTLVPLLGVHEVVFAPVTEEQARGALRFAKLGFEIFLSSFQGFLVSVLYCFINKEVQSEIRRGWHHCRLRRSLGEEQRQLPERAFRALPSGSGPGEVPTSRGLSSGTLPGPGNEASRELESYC
Assay: cell-based or functional assay
Numbered stars: 1 amine (or outer) side, 2 acyl side, 3 side chain; on linkers, the order of the positions; unused ones are H or OH. Square brackets hold non-standard residues; d marks the D form. Side chains are listed from the residue outwards. Ends that are not written are not given here. * marks the point of attachment. C18 = C18 fatty acid (C16-C22 fatty acids conjugated via γGlu/8-amino-3,6-dioxaoctanoic acid spacers); Biotin = O=C1N[C@H]2[C@H](CS[C@H]2CCCCC(=O)*)N1; γGlu = O=C(O)[C@H](CCC(=O)[*:2])N[*:1]; biotin‑maleimide = B1-MAL; AEEA = NCCOCCOCC(=O)O; Aib = CC(C)(N)C(=O)O; MAL = maleimide
resultType: EC50 (nM), cAMP assay

INSERT INTO assay_data (binder, measuredresult) VALUES
  ('H[Aib]QGTFTSDYSK(Biotin)YLDYMMARDFVQWLIEGGPSSGAPPPSC([MAL-AEEA-AEEA-γGlu-C18])-NH2 [Peptide No. 5B (peptide 5, B type: lipid at Cys40 and biotin at Lys12)]', '97.2 nM'),
  ('H[Aib]QGTFTSDYSKYLDYMMARDFVQWLIEGGPSSGAPPPSC [Peptide No. 5 (with C-terminal cysteine)]', '13.2 nM'),
  ('H[Aib]QGTFTSDYSK([AEEA-AEEA-γGlu-C18])YLDYMMARDFVQWLIEGGPSSGAPPPSC(biotin‑maleimide)-NH2 [Peptide No. 5C (peptide 5, C type: lipid at Lys12 and biotin at Cys40)]', '24.2 nM'),
  ('H[Aib]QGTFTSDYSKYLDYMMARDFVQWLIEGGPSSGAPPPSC([MAL-AEEA-AEEA-γGlu-C18])-NH2 [Peptide No. 5A (peptide 5, A type: lipid at Cys40)]', '140 nM');
